The entries below come with measured 19F DLB Score values attached.
- SYSTEM_UNDER_TEST: HRas^G12V (Homo sapiens (Human), UniProt P01112, G12V)
- Sequence (P01112 1-166 G12V): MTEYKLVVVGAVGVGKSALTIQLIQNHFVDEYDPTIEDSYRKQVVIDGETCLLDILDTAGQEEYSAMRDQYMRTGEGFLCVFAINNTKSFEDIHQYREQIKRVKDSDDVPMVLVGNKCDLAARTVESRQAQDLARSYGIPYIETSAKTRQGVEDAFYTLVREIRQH
- PROTOCOL_DESCRIPTION: 19F DLB (ligand-observed 19F NMR) score
- Type: binding
- Parameters: scale not given here
Number, no unit, nothing else.

| COMPOUND | 19F DLB Score |
| --- | --- |
| CC1CN(C(=O)C(CC(=O)O)c2c[nH]c3cc(F)ccc23)C1 (stereo not drawn) [Compound 11034] | 1.7 |
| CN(C)C[C@@H]1CN(C(=O)Cc2c[nH]c3cc(F)ccc23)CCO1 [Compound 10159] | 3.93 |

Task: Please list 19F DLB Score recorded for the compound O=C(Cc1c[nH]c2cc(F)ccc12)N1CCCC(O)C1 (stereo not drawn) [Compound 10120]
Output: 2.34

Task: Please list 19F DLB Score recorded for the compound O=C(c1cccc(F)c1)N1CCC(c2c[nH]c3cc(F)ccc23)C1 (stereo not drawn) [Compound 11022]
Output: 3.43

Task: Please list 19F DLB Score recorded for the compound CC1CN(C)CCC1NC(=O)Cc1c[nH]c2cc(F)ccc12 (stereo not drawn) [Compound 10099]
Output: 1.4

Task: Please list 19F DLB Score recorded for the compound O=C(Cc1c[nH]c2cc(F)ccc12)N[C@@H]1CCOC1 [Compound 10071]
Output: 1.35

Task: Please list 19F DLB Score recorded for the compound CC1CN(C(=O)Cc2n[nH]c3cc(F)ccc23)C1 [Compound 10144]
Output: 1.93

Task: Please list 19F DLB Score recorded for the compound CN1CCN(C(=O)Cc2c[nH]c3cc(F)ccc23)C[C@@H]1C(=O)O [Compound 10173]
Output: 1.33

Task: Please list 19F DLB Score recorded for the compound CN(C)CC(=O)Nc1cccc(NC(=O)C(C#N)c2c[nH]c3cc(F)ccc23)c1 (stereo not drawn) [Compound 11032]
Output: 4.73

Source listed as patent US20240408064A1.
